# Target Entity: human D2long receptor (Homo sapiens, UniProt P14416)
# Construct: expressed in transfected cells; host or cells: Chinese hamster ovary (CHO) cells, membranes
# Sequence (P14416 whole entry): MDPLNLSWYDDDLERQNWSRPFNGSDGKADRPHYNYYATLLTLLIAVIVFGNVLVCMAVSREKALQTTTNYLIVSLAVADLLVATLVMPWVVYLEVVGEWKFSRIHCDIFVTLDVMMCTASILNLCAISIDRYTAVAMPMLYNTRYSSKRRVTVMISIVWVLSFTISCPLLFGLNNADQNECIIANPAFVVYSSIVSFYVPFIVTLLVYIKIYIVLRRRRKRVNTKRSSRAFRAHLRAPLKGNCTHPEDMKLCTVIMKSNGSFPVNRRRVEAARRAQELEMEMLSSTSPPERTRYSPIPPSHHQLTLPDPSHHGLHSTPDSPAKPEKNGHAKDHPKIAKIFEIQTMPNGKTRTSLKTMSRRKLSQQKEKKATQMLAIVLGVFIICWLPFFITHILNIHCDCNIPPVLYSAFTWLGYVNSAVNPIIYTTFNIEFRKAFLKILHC
# Assay Comment: radioligand binding with [^3H]spiperone, D2long
# Measurement Parameters: [^3H]spiperone, CHO membranes, mean of 2 to 4 experiments; read-out: Ki D2lo
Please go through the items and note down their Ki.

Give its Ki value. Item: O=Cc1c(OCCCCN2CCN(c3cccc(Cl)c3Cl)CC2)nn2ccccc12
< 30 nM

Give its Ki value. Item: COc1ccccc1N1CCN(CCCCOc2cccn3ncc(C=O)c23)CC1
< 30 nM

Give its Ki value. Item: COc1ccccc1N1CCN(CCCCOc2cccc3c(C=O)cnn23)CC1
301 to 3000 nM

Give its Ki value. Item: ON=Cc1cnn2ccc(OCCCCN3CCN(c4cccc(Cl)c4Cl)CC3)cc12 [Example E30]
< 30 nM

Give its Ki value. Item: ON=Cc1cnn2ccc(OCCCCN3CCN(c4ccccc4Cl)CC3)cc12 [Example E32]
< 30 nM

Give its Ki value. Item: Clc1cccc(N2CCN(CCCCOc3ccn4ncc(Cl)c4c3)CC2)c1Cl
30 to 300 nM

For each of the compounds below, note its Ki.
1. N#Cc1cnn2ccc(OCCCCN3CCN(c4ccccc4Cl)CC3)cc12
2. Clc1ccccc1N1CCN(CCCCOc2cccc3ccnn23)CC1
3. O=Cc1cnn2cccc(OCCCCN3CCN(c4cccc(Cl)c4Cl)CC3)c12

1. < 30 nM
2. 30 to 300 nM
3. < 30 nM

----------
# Target Entity: human D2short receptor (Homo sapiens)
# Construct: expressed in transfected cells; host or cells: Chinese hamster ovary (CHO) cells, membranes
# Sequence (P14416 1-414 isoform P14416-2): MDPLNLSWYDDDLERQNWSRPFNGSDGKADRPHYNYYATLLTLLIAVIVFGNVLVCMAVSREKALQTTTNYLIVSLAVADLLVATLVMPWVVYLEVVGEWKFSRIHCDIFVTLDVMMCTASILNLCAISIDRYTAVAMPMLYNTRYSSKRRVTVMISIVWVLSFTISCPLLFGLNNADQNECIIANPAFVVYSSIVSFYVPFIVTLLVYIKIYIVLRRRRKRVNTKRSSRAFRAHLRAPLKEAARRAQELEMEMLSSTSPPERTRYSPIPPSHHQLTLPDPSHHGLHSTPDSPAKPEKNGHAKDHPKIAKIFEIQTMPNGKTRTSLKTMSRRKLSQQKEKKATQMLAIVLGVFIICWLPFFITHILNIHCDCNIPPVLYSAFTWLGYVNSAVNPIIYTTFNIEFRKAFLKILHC
# Assay Comment: radioligand binding with [^3H]spiperone, D2short
# Measurement Parameters: [^3H]spiperone, CHO membranes, mean of 2 to 4 experiments; read-out: Ki D2sh
pKi: −log10 of the molar value.
Please go through the items and note down their pKi.

Give its pKi value. Item: CC(=O)Nc1cccc(N2CCN(CCCCOc3ccn4ncc(C=O)c4c3)CC2)c1
6.52 to 7.52

Give its pKi value. Item: COc1ccccc1N1CCN(CCCCOc2ccn3ncc(CNC(C)=O)c3c2)CC1
> 7.52

Give its pKi value. Item: COc1ccccc1N1CCN(CCCCOc2ccn3ncc(I)c3c2)CC1
> 7.52

Give its pKi value. Item: COc1ccccc1N1CCN(CCCCOc2cccc3ccnn23)CC1
6.52 to 7.52

Give its pKi value. Item: Clc1cccc(N2CCN(CCCCOc3ccn4nnnc4c3)CC2)c1Cl
> 7.52

For each of the compounds below, note its pKi.
1. COC(=O)c1cnn2ccc(OCCCCN3CCN(c4ccccc4OC)CC3)cc12
2. COc1ccccc1N1CCN(CCCCOc2cccn3ncc(C=O)c23)CC1
3. O=Cc1cnn2ccc(OCCCCN3CCN(c4ccccc4Cl)CC3)cc12

> 7.52
> 7.52
> 7.52

For each of the compounds below, note its pKi.
1. Clc1ccccc1N1CCN(CCCCOc2ccn3ncc(Cl)c3c2)CC1
2. Clc1ccccc1N1CCN(CCCCOc2ccn3nccc3c2)CC1

1: > 7.52; 2: > 7.52

For each of the compounds below, note its pKi.
1. Clc1ccccc1N1CCN(CCCCOc2cccc3ccnn23)CC1
2. COc1ccccc1N1CCN(CCCCOc2nn3ccccc3c2C=O)CC1

["6.52 to 7.52", "> 7.52"]

For each of the compounds below, note its pKi.
1. Clc1cccc(N2CCN(CCCCOc3cccn4nccc34)CC2)c1Cl
2. Clc1cccc(N2CCN(CCCCOc3ccn4ncc(Br)c4c3)CC2)c1Cl
3. ON=Cc1cnn2ccc(OCCCCN3CCN(c4cccc(Cl)c4Cl)CC3)cc12 [Example E33]

["> 7.52", "6.52 to 7.52", "> 7.52"]

For each of the compounds below, note its pKi.
1. ON=Cc1cnn2ccc(OCCCCN3CCN(c4ccccc4Cl)CC3)cc12 [Example E35]
2. N#Cc1cnn2ccc(OCCCCN3CCN(c4ccccc4Cl)CC3)cc12
3. COc1ccccc1N1CCN(CCCCOc2ccn3ncc(CO)c3c2)CC1
4. COc1ccccc1N1CCN(CCCCOc2cc3ccccn3n2)CC1 [Example E2]

1. > 7.52
2. > 7.52
3. > 7.52
4. > 7.52

For each of the compounds below, note its pKi.
1. Clc1cccc(N2CCN(CCCCOc3ccc4ccnn4c3)CC2)c1Cl
2. COc1ccccc1N1CCN(CCCCOc2cccn3nccc23)CC1

1: > 7.52; 2: > 7.52

For each of the compounds below, note its pKi.
1. O=Cc1c(OCCCCN2CCN(c3cccc(Cl)c3Cl)CC2)nn2ccccc12
2. CC(=O)c1cnn2ccc(OCCCCN3CCN(c4ccccc4Cl)CC3)cc12

1: > 7.52; 2: > 7.52

For each of the compounds below, note its pKi.
1. COc1ccc(N2CCN(CCCCOc3ccn4ncc(C=O)c4c3)CC2)cc1
2. COc1ccccc1N1CCN(CCCCOc2ccn3ncc(CN)c3c2)CC1
3. Clc1ccccc1N1CCN(CCCCOc2ccc3ccnn3c2)CC1

["6.52 to 7.52", "> 7.52", "> 7.52"]

----------
Mark true (1) for reported melting point of 90 °C or greater; mark false (0) for anything smaller.

A selection of reference data follows.
Please tell me: is the compound Clc1ccccc1N1CCN(CCCCOc2ccn3ncc(Cl)c3c2)CC1 at or over 90 °C in terms of melting point?
false (0)

Please tell me: is the compound Clc1ccccc1N1CCN(CCCCOc2ccn3ncc(Br)c3c2)CC1 at or over 90 °C in terms of melting point?
false (0)

Please tell me: is the compound N#Cc1cnn2ccc(OCCCCN3CCN(c4ccccc4Cl)CC3)cc12 at or over 90 °C in terms of melting point?
true (1)

Please tell me: is the compound Clc1ccccc1N1CCN(CCCCOc2ccn3ncc(I)c3c2)CC1 at or over 90 °C in terms of melting point?
true (1)

New cases:
Please tell me: is the compound COc1ccccc1N1CCN(CCCCOc2cccn3ncc(C=O)c23)CC1 at or over 90 °C in terms of melting point?
true (1)

Please tell me: is the compound COc1ccccc1N1CCN(CCCCOc2ccn3ncc(I)c3c2)CC1 at or over 90 °C in terms of melting point?
false (0)

----------
# Target Entity: dopamine D2short receptor (Homo sapiens, UniProt P14416)
# Sequence (P14416 1-414 isoform P14416-2): as above
# Assay Comment: [^35S]GTPγS-incorporation assay, intrinsic activity
# Measurement Parameters: read-out: D2short: [^35S]GTPγS intrinsic activity, % activity of quinpirol
Please go through the items and note down their Emax.

In the examples that follow, each entry is paired with its recorded Emax.
Give its Emax value. Item: CC(=O)c1cnn2ccc(OCCCCN3CCN(c4cccc(Cl)c4Cl)CC3)cc12 [Example E27]
< 15%

Give its Emax value. Item: CC(=O)Nc1cccc(N2CCN(CCCCOc3ccn4ncc(C=O)c4c3)CC2)c1 [Example E70]
15 to 40%

Give its Emax value. Item: COc1ccccc1N1CCN(CCCCOc2ccn3ncc(Br)c3c2)CC1 [Example E43]
15 to 40%

Give its Emax value. Item: Clc1cccc(N2CCN(CCCCOc3ccc4ccnn4c3)CC2)c1Cl [Example E51]
< 15%

Give its Emax value. Item: COc1ccccc1N1CCN(CCCCOc2cccn3ncc(C=O)c23)CC1 [Example E11]
< 15%

For each of the compounds below, note its Emax.
1. CC(=O)c1cnn2ccc(OCCCCN3CCN(c4ccccc4Cl)CC3)cc12 [Example E29]
2. O=Cc1cnn2ccc(OCCCCN3CCN(c4ccccc4Cl)CC3)cc12 [Example E23]
3. O=Cc1cnn2ccc(OCCCCN3CCN(c4cccc([N+](=O)[O-])c4)CC3)cc12 [Example E69]

1: < 15%; 2: 15 to 40%; 3: 15 to 40%

Give its Emax value. Item: COc1ccccc1N1CCN(CCCCOc2cc3ccccn3n2)CC1 [Example E2]
< 15%

----------
# Target Entity: 5-HT1A receptor (Sus scrofa, UniProt A0A4X1UTF5)
# Construct: membrane preparations from porcine cortical material; from tissue; host or cells: porcine cerebral cortex membranes
# Sequence (A0A4X1UTF5 1-422): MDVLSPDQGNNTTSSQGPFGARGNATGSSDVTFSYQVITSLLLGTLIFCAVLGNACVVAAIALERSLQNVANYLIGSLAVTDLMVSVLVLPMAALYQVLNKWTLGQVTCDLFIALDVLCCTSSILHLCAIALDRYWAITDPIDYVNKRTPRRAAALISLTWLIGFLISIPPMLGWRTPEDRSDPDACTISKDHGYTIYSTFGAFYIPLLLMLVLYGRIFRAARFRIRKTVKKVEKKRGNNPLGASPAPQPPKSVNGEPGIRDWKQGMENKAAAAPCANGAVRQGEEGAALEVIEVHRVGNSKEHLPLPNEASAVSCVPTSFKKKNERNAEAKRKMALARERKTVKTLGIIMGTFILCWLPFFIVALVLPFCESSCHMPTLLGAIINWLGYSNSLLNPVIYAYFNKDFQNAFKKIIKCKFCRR
# Assay Comment: radioligand binding, porcine cortical membranes, [^3H]8-OH-DPAT and [^3H]WAY 100635
# Measurement Parameters: porcine cortical membranes
pKi: −log10 of the molar value.
Please go through the items and note down their pKi.

In the examples that follow, each entry is paired with its recorded pKi.
Give its pKi value. Item: Clc1ccccc1N1CCN(CCCCOc2cccn3nccc23)CC1 [Example E9]
> 7.52

Give its pKi value. Item: COc1ccccc1N1CCN(CCCCOc2cccn3nccc23)CC1 [Example E8]
> 7.52

Give its pKi value. Item: COc1ccccc1N1CCN(CCCCOc2cccn3ncc(C=O)c23)CC1 [Example E11]
> 7.52

Give its pKi value. Item: O=Cc1cnn2ccc(OCCCCN3CCN(c4ccc(Cl)cc4)CC3)cc12 [Example E25]
6.52 to 7.52

Give its pKi value. Item: CC(=O)Nc1cccc(N2CCN(CCCCOc3ccn4ncc(C=O)c4c3)CC2)c1 [Example E70]
> 7.52

For each of the molecules below, note its pKi.
1. Clc1ccccc1N1CCN(CCCCOc2ccn3ncc(Cl)c3c2)CC1 [Example E47]
2. ON=Cc1cnn2ccc(OCCCCN3CCN(c4cccc(Cl)c4Cl)CC3)cc12 [Example E33]
3. O=Cc1cnn2ccc(OCCCCN3CCN(c4ccccc4Cl)CC3)cc12 [Example E23]
4. O=Cc1c(OCCCCN2CCN(c3ccccc3Cl)CC2)nn2ccccc12 [Example E6]
5. COc1ccccc1N1CCN(CCCCOc2nn3ccccc3c2C=O)CC1 [Example E5]
6. COC(=O)c1cnn2ccc(OCCCCN3CCN(c4ccccc4Cl)CC3)cc12 [Example E41]
7. Clc1ccccc1N1CCN(CCCCOc2cc3ccccn3n2)CC1 [Example E3]

1. 6.52 to 7.52
2. 6.52 to 7.52
3. > 7.52
4. > 7.52
5. > 7.52
6. > 7.52
7. > 7.52
